tested on: norovirus GII.17 Saitama strain virus-like particle (VLP) (norovirus GII.17 Saitama strain)
experiment summary: BLI (BLItz), biotinylated peptide on SA chip, VLP in solution
Where no end group is shown, it is not given here.
Here, each record is paired with measured koff data.

binder	koff [s⁻¹]
YVIRNSDRHN (also: biotinylated, residue not given here, spacer sequence added, letters and position not given here) [norovirus-binding peptide of SEQ ID NO: 43]	0.192
ICSSWFPSVH (also: biotinylated, residue not given here, spacer sequence added, letters and position not given here) [norovirus-binding peptide of SEQ ID NO: 48]	0.0978
SVMVTRSLFG (also: biotinylated, residue not given here, spacer sequence added, letters and position not given here) [norovirus-binding peptide of SEQ ID NO: 163]	0.0185
VCVDNDISMS (also: biotinylated, residue not given here, spacer sequence added, letters and position not given here) [norovirus-binding peptide of SEQ ID NO: 150]	0.255
VVGFGRRSLF (also: biotinylated, residue not given here, spacer sequence added, letters and position not given here) [norovirus-binding peptide of SEQ ID NO: 156]	0.0931
KYRATICHTV (also: biotinylated, residue not given here, spacer sequence added, letters and position not given here) [norovirus-binding peptide of SEQ ID NO: 52]	0.0232
YRRSKSEIFV (also: biotinylated, residue not given here, spacer sequence added, letters and position not given here) [norovirus-binding peptide of SEQ ID NO: 59]	0.0511
